# Test system: scuticociliates
# assay: Scuticociliates extermination effect of candidate substances in MEM medium
# Type: cell-based
# conditions: MEM medium, Dosage 1500 ppm
readout name: Survival or Death of scuticociliates (activity and shape, microscope)

• c1ccc(C2CN3CCSC3=N2)cc1 (stereo not drawn) = Survival
• CN1CCCN=C1/C=C/c1cccs1 = Survival
• CC[C@H](C)[C@H]1O[C@]2(CC[C@@H]1C)C[C@@H]1C[C@@H](C/C=C(\C)[C@@H](O[C@H]3C[C@H](OC)[C@@H](O[C@H]4C[C@H](OC)[C@@H](O)[C@H](C)O4)[C@H](C)O3)[C@@H](C)/C=C/C=C3\CO[C@@H]4[C@H](O)C(C)=C[C@@H](C(=O)O1)[C@]34O)O2 = Survival
• C1CNCCN1 = Survival
• c1ccc([C@H]2CN3CCSC3=N2)cc1 = Survival

Pending compound:
So what does the record say about Survival or Death of scuticociliates (activity and shape, microscope) for CCCOc1ccc2nc(NC(=O)OC)[nH]c2c1 ?
Δ

###

# Tested on: scuticociliates
# assay: Scuticociliates extermination effect of candidate substances in seawater medium
# Assay type: cell-based
# conditions: seawater medium, 4 hour, Dosage 1000 ppm
readout name: Survival or Death of scuticociliates (activity and shape, microscope)

* c1ccc([C@H]2CN3CCSC3=N2)cc1 | Survival
* Nc1cc(C(Cl)=C(Cl)Cl)c(S(N)(=O)=O)cc1S(N)(=O)=O | Survival
* CCCSc1ccc2nc(NC(=O)OC)[nH]c2c1 | Death
* c1ccc(C2CN3CCSC3=N2)cc1 (centres unmarked) | Survival
* CN1CCCN=C1/C=C/c1cccs1 | Survival

So what does the record say about Survival or Death of scuticociliates (activity and shape, microscope) for CC[C@H](C)[C@H]1O[C@]2(CC[C@@H]1C)C[C@@H]1C[C@@H](C/C=C(\C)[C@@H](O[C@H]3C[C@H](OC)[C@@H](O[C@H]4C[C@H](OC)[C@@H](O)[C@H](C)O4)[C@H](C)O3)[C@@H](C)/C=C/C=C3\CO[C@@H]4[C@H](O)C(C)=C[C@@H](C(=O)O1)[C@]34O)O2 ?
Survival

So what does the record say about Survival or Death of scuticociliates (activity and shape, microscope) for COC(=O)Nc1nc2ccc(Sc3ccccc3)cc2[nH]1 ?
Death

So what does the record say about Survival or Death of scuticociliates (activity and shape, microscope) for COC(=O)Nc1nc2ccc([S+]([O-])c3ccccc3)cc2[nH]1 (centres unmarked) ?
Death

So what does the record say about Survival or Death of scuticociliates (activity and shape, microscope) for O=[N+]([O-])NC1=NCCN1Cc1ccc(Cl)nc1 ?
Δ

So what does the record say about Survival or Death of scuticociliates (activity and shape, microscope) for COC(=O)Nc1nc2ccc(C(=O)c3ccccc3)cc2[nH]1 ?
Death

So what does the record say about Survival or Death of scuticociliates (activity and shape, microscope) for CC1(C)[C@H](C(=O)O[C@H](C#N)c2cccc(Oc3ccccc3)c2)[C@@H]1C=C(Br)Br ?
Survival

So what does the record say about Survival or Death of scuticociliates (activity and shape, microscope) for CCCOc1ccc2nc(NC(=O)OC)[nH]c2c1 ?
Survival

So what does the record say about Survival or Death of scuticociliates (activity and shape, microscope) for CC[C@H](C)[C@H]1O[C@]2(C=C[C@@H]1C)C[C@@H]1C[C@@H](C/C=C(\C)[C@@H](O[C@H]3C[C@H](OC)[C@@H](O[C@H]4C[C@H](OC)[C@@H](O)[C@H](C)O4)[C@H](C)O3)[C@@H](C)/C=C/C=C3\CO[C@@H]4[C@H](O)C(C)=C[C@@H](C(=O)O1)[C@]34O)O2 ?
Death

So what does the record say about Survival or Death of scuticociliates (activity and shape, microscope) for C1CNCCN1 ?
Survival

Each recorded value in this set is attributed to patent US9956204B2.
